Task for the reader: assign each of the following compounds its reported Herbicidal effect, growth application (%).
# Test system: Romaine lettuce (Lactuca sativa L.) plants
# ASSAY OVERVIEW: Comparison of NAA and DNAA: growth inhibition of potted Romaine lettuce plants
# Format: in vivo
# EXPERIMENTAL SETUP: foliar application, 0.50 mg/pot, two weeks after treatment
Response body: numeric value in %, unit text excluded.

Lookup result for "O=C(O)C(F)(F)c1nc(Cl)sc1Cl" ; measured Herbicidal effect, growth application (%): 100

Lookup result for NC(Cc1ccnc(Br)c1)C(=O)O (centres unmarked) ; measured Herbicidal effect, growth application (%): 8

Lookup result for NC(Cc1cc(Cl)sc1Cl)C(=O)O (centres unmarked) ; measured Herbicidal effect, growth application (%): 29

Lookup result for NC(Cc1ccsc1Cl)C(=O)O (centres unmarked) ; measured Herbicidal effect, growth application (%): 0

Lookup result for NC(Cc1nc(Cl)sc1Cl)C(=O)O (centres unmarked) ; measured Herbicidal effect, growth application (%): 44

---

# Tested on: Sinapis
# ASSAY OVERVIEW: Herbicidal effect on potted weeds, plant development score
# Type: in vivo
# EXPERIMENTAL SETUP: post-emergence, soil application 1 mg/pot; scale 0 (dead plants) to 5 (healthy, as Control)
Task for the reader: assign each of the following compounds its reported Average Herbicidal Effect, Sinapis.
# respond with the number and nothing more

Lookup result for "CCOC(=O)C(F)(F)c1cc(Cl)sc1Cl" ; measured Average Herbicidal Effect, Sinapis: 5.0

Lookup result for "O=C(O)C(F)(F)c1csc(C(F)(F)F)n1" ; measured Average Herbicidal Effect, Sinapis: 1.0

Lookup result for "O=C(O)C(F)(F)c1nc(Cl)sc1Cl" ; measured Average Herbicidal Effect, Sinapis: 0.0

Lookup result for "OCC(F)(F)c1cccc(Br)n1" ; measured Average Herbicidal Effect, Sinapis: 4.0

Lookup result for CCOC(=O)Cc1cccc(Br)n1 [compound 6635, ethyl 2-(6-bromopyridin-2-yl)acetate] ; measured Average Herbicidal Effect, Sinapis: 2.0

Lookup result for "O=C(O)Cc1cc(Cl)sc1Cl" ; measured Average Herbicidal Effect, Sinapis: 0.0

Lookup result for "O=C([O-])C(F)(F)c1csc(Cl)n1.[Na+]" ; measured Average Herbicidal Effect, Sinapis: 0.0

---

# Tested on: Silybum
# ASSAY OVERVIEW: Herbicidal effect on potted weeds, plant development score
# Type: in vivo
# EXPERIMENTAL SETUP: pre-emergence, soil application 1 mg/pot; scale 0 (dead plants) to 5 (healthy, as Control)
Values of Average Herbicidal Effect, Silybum greater than or equal to 2 map to Yes; values below map to No.

Q. Is Average Herbicidal Effect, Silybum for "O=C([O-])C(F)(F)c1csc(Cl)n1.[Na+]" at or above 2?
A. No

Q. Is Average Herbicidal Effect, Silybum for "OCC(F)(F)c1cccc(Br)n1" at or above 2?
A. Yes

Q. Is Average Herbicidal Effect, Silybum for CCOC(=O)Cc1cc(Cl)sc1Cl [compound 5668, ethyl (2,5-dichlorothiophen-3-yl)acetate] at or above 2?
A. Yes

Q. Is Average Herbicidal Effect, Silybum for "CCOC(=O)C(F)(F)c1cc(Cl)sc1Cl" at or above 2?
A. No

Q. Is Average Herbicidal Effect, Silybum for "O=C(O)C(F)(F)c1nc(Cl)sc1Cl" at or above 2?
A. Yes

Q. Is Average Herbicidal Effect, Silybum for "O=C(O)Cc1cc(Cl)sc1Cl" at or above 2?
A. No

Q. Is Average Herbicidal Effect, Silybum for CCOC(=O)Cc1cccc(Br)n1 [compound 6635, ethyl 2-(6-bromopyridin-2-yl)acetate] at or above 2?
A. Yes
